Recorded inhibition at 13 µM for the following compounds
Biological target: S. pneumoniae Topoisomerase IV ATPase (ParE) (Streptococcus pneumoniae serotype 4, UniProt Q59961)
Sequence (Q59961 whole entry): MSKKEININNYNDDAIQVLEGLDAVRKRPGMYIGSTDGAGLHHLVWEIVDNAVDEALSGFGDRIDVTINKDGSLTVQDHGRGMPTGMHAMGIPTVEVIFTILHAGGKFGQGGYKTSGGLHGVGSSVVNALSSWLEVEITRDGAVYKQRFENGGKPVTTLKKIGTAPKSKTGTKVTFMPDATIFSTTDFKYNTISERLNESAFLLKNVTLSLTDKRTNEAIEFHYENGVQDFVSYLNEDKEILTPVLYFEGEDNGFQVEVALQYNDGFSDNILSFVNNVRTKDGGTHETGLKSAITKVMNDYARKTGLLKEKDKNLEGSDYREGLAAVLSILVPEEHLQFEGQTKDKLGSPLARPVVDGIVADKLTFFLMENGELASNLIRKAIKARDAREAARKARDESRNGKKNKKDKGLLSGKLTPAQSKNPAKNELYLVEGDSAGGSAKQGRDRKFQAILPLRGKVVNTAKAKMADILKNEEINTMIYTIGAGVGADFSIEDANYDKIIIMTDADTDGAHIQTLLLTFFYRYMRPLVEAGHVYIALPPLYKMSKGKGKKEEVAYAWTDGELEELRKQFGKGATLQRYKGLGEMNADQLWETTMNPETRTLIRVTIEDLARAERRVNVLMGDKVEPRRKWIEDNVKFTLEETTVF
Assay: S. pneumoniae Topoisomerase IV ATPase inhibition
Assay type: biochemical
Conditions: values marked * are an average of two or more data points, read-out: % Inh (13 μM) of S. pneumoniae Topoisomerase IV ATPase
Your answer is read as %, so omit the unit and give the number.

Example results:
# given_smiles, measured_endpoint, unit_label, observed_measurement
records = [
    ("Fc1ccc(Nc2ncc(-c3cncnc3)c(-n3cnc(Cl)c3Cl)n2)cc1Cl", "inhibition at 13 µM", "%", 52.6),
    ("COc1ncc(-c2cnc(Nc3ccc(F)c(Cl)c3)nc2-n2ccc(C(F)(F)F)n2)cc1C(=O)O", "inhibition at 13 µM", "%", 100),
    ("Fc1ccc(Nc2ncc(-c3cncnc3)c(NCCc3ccncc3)n2)cc1Cl", "inhibition at 13 µM", "%", 93.5),
]

IN: Request the reported inhibition at 13 µM associated with CCOC(=O)/C=C/c1cccc(-c2cnc(Nc3ccc(F)c(Cl)c3)nc2NCCCNC(=O)c2cnc(C)cn2)c1
OUT: 56.9

IN: Repeat with Cc1cc(C)cc(Nc2ncc(-c3cc(C(=O)O)c(=O)n(C)c3)c(-n3ccc(C(F)(F)F)n3)n2)c1
OUT: 100
